- Tested on: Myzus persicae (Green Peach Aphid)
- method: Activity against Myzus persicae (green peach aphid), mixed population, feeding/residual contact activity, preventive
- Format: in vivo
- conditionNotes: foliar, 144 h, sprayed sunflower leaf discs, aphid population of mixed ages, 6 days incubation
measurementLabel: mortality at 200 ppm

compound=CCO/N=C1\CS(=O)(=O)N(C)c2ccc(-c3cnn(-c4cccnc4)c3)nc21 targetortestsystem="Myzus persicae (Green Peach Aphid)" measuredvalue="> 80%"
compound="CC1CCc2ccc(-c3cnn(-c4cccnc4)c3)nc2C1=O (centres unmarked)" targetortestsystem="Myzus persicae (Green Peach Aphid)" measuredvalue="> 80%"
compound="CON=C1c2nc(-c3cnn(-c4cccnc4)c3)ccc2N(C)S(=O)(=O)C1(C)C (single isomer, unassigned)" targetortestsystem="Myzus persicae (Green Peach Aphid)" measuredvalue="> 80%"
compound=CO/N=C1\CCCc2sc(-c3cnn(-c4cccnc4)c3)nc21 targetortestsystem="Myzus persicae (Green Peach Aphid)" measuredvalue="> 80%"
compound=CC(=O)N/N=C1\CCCc2ccc(-c3cnn(-c4cccnc4)c3)nc21 targetortestsystem="Myzus persicae (Green Peach Aphid)" measuredvalue="> 80%"
compound=CO/N=C1\CCOc2ccc(-c3cnn(-c4cccnc4)c3)nc21 targetortestsystem="Myzus persicae (Green Peach Aphid)" measuredvalue="> 80%"
compound=CN1Cc2ccc(-c3cnn(-c4cccnc4)c3)nc2C1=O targetortestsystem="Myzus persicae (Green Peach Aphid)" measuredvalue="> 80%"
compound=O=C1CCOc2ccc(-c3cnn(-c4cccnc4)c3)nc21 targetortestsystem="Myzus persicae (Green Peach Aphid)" measuredvalue="> 80%"
